Cell adhesion assay Max. inhibition at 200 nM Fab [%], coated VitroCol listing for selected binders.
system.name: T1, human GPVI (full-length) expressed on stably transfected rat basophilic RBL-2H3 cells (human, UniProt Q9HCN6 21-339)
T1 sequence (looked up): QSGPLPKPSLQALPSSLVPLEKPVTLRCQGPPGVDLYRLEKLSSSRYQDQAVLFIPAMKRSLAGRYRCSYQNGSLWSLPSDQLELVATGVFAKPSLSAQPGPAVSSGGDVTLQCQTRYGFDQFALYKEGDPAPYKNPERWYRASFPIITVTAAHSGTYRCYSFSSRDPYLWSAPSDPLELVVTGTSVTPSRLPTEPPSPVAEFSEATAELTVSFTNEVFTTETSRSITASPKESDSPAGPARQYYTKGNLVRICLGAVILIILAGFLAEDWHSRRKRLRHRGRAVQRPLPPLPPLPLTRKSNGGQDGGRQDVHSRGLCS
experiment.description: cell-based or functional assay
parameter: Cell adhesion assay Max. inhibition at 200 nM Fab [%], coated VitroCol (%)

Fab #3 comprising a modified heavy chain constant region (Fab, V domains shown, Human Fab from the Ylanthia library; produced in HKB11 cells; also called Fab #3 mod; HC) VH: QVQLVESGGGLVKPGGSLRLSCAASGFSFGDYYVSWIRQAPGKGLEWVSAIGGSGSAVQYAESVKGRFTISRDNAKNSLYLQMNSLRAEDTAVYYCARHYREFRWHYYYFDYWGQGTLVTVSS VL: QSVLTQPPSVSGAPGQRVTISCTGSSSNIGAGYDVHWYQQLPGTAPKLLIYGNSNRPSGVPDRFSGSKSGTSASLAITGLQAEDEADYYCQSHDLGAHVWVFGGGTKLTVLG = 91
Fab #4 comprising a modified heavy chain constant region (Fab, V domains shown, Human Fab from the Ylanthia library; produced in HKB11 cells; also called Fab #4 mod; HC) VH: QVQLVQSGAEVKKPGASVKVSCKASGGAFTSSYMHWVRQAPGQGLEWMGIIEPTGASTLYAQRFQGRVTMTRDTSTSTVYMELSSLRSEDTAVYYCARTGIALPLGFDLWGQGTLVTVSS VL: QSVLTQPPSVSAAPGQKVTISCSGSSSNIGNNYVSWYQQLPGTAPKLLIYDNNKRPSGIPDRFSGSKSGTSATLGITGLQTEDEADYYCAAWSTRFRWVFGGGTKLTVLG = 59
Fab #1 comprising a modified heavy chain constant region (Fab, V domains shown, Human Fab from the Ylanthia library; produced in HKB11 cells; also called Fab #1 mod; HC) VH: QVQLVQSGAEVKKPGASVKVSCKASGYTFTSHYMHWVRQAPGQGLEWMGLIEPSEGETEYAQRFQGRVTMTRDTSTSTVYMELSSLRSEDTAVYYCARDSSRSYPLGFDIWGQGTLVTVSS VL: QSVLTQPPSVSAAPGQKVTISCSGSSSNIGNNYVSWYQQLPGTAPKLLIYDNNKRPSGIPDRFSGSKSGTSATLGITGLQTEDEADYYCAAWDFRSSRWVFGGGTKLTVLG = 55
Fab #2 comprising a modified heavy chain constant region (Fab, V domains shown, Human Fab from the Ylanthia library; produced in HKB11 cells; also called Fab #2 mod; HC) VH: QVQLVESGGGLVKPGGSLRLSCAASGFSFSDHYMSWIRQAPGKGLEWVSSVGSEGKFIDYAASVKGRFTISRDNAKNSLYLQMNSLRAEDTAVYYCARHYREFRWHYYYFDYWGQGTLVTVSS VL: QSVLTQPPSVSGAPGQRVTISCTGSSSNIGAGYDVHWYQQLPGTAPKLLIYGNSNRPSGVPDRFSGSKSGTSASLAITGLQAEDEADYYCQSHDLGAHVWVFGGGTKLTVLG = 93
